# Assayed target: HPV-16-E6 (recombinant GST-E6 protein) (Human papillomavirus type 16)
# Construct: The full length HPV16 E6 gene was amplified via polymerase chain reaction and cloned in the vector pGeX4T2; made in house; host or cells: E. coli strain AB1899
# Sequence (P03126 whole entry): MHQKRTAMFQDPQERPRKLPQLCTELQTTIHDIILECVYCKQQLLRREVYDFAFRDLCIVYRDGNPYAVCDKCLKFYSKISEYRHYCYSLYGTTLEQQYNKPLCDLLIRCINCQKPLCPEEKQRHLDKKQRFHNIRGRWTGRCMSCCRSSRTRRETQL
# Method description: biochemical
# Format: biochemical
# Assay setup: read-out: TSQ % (% values of Zinc release)
# Text: Where the chelated metal is zinc, zinc release can be measured as an increase in the fluorescence of the zinc-selective fluorophore TSQ (N-(6-methoxy-8-quinolyl)-p-toluenesulfonamide) (18) in the presence of the protein and the active compound (TSQ assay). In such an assay, the increase in fluorescence measured can be described as a percentage of the increase in fluorescence observed for a positive control compound which provides 100% zinc release. A suitable positive control compound is H2O2. […]
Tick T if activation at 13 µM is 40% or greater. Tick F if activation at 13 µM is less than 40%.

Q: Given the entry C1CCN(SSN2CCCCC2)CC1 , answer whether its activation at 13 µM meets or surpasses 40%.
Result: T

Q: Decide: is the reported value of activation at 13 µM for C1CCN(SSN2CCCC2)C1 equal to or greater than 40%?
Result: T

Q: Dear colleague, could you confirm whether CN1CCN(SSN2CCN(C)CC2)CC1 has activation at 13 µM at or above 40%?
Result: T

Q: In plain terms: is recorded activation at 13 µM at least 40% for c1ccc(N2CCN(SSN3CCN(c4ccccn4)CC3)CC2)nc1 ?
Result: T

Q: Dear colleague, could you confirm whether O=[N+]([O-])c1ccc(N2CCN(SSN3CCN(c4ccc([N+](=O)[O-])cc4)CC3)CC2)cc1 has activation at 13 µM at or above 40%?
Result: F
